# Test system: MALME-3M melanoma
Write down the outcome that applies. Available outcomes: 1 for active, -1 for inactive

[Q] Record lookup: outcome of this test for COc1ccc(-c2cc(/C=C3\C(=O)Nc4ccc(Cl)cc43)[nH]n2)cc1 ?
[A] -1

====

GI50 tested on HOP-92 NSCLC: recorded values

Reported GI50 of CC(=O)O[C@H]1CC[C@@]2(C)C(=CC[C@H]3[C@@H]4C/C(=C\c5cccc(OCCN6CCOCC6)c5)[C@H](OC(C)=O)[C@@]4(C)CC[C@@H]32)C1 : 4.32 µM

// GI50 value for O=S(=O)(NCC1CCC(CNc2ccc(Cl)cc2)CC1)c1ccc(-c2ccccc2)cc1 (centres undefined) : 45.6 µM

response.value for COCCOC(=O)NC(=O)Nc1ccc(/C(=N/O)c2ccc(Cl)cc2)cc1 (field: GI50) = 1.4 µM

GI50 reading for N#Cc1cnc2cc(OC[C@@H](O)CO)c(NC(=O)CC3CSSC3)cc2c1Nc1ccc(OCc2cccc(F)c2)c(Cl)c1 : 0.919 µM

// recorded GI50 for O=C(Nc1ccc(Cl)cc1)c1ccc(NC2=C(Cl)C(=O)N(Cc3ccccc3)C2=O)cc1 : 9.19 µM

For every item in the list below, what is its measured GI50?
1. NNc1cccc(/C=C/c2ccccc2)cc1=O
2. CC[C@@]1(O)C(=O)NCc2c1cc1n(c2=O)Cc2cc3c(N)cccc3nc2-1
3. NC(=O)c1cc(Br)cc(C2CCCCC2)c1O

[A]
["8.71 µM", "8.64 µM", "12.2 µM"]

Entry COc1ccccc1NC(=O)n1nc(N)c2ccccc21 , GI50 reported as 22.7 µM

====

For each entry below, report its TGI value.
# Test system: KM12 colon
# test method notes: NCI tumour cell line growth inhibition, 48 h

// below: answered compounds
Quick note, TGI for O=c1[nH]c(=O)n(C2OC(CO)C(O)C2O)c2c1CCCC2 (stereo not drawn) landed at > 100 µM

Record CCOC(=O)Nc1c(C#N)[n+]([O-])c2cc(Cl)c(Cl)cc2[n+]1[O-] . Reported TGI: 64.8 µM

Please fill in: TGI reported for O=C1C(NCCc2ccc(O)c(O)c2)=CC(=O)c2ncccc21 = 30.5 µM

Query COc1cccc(NC(=O)CC(=O)N2N=C(N(CCC#N)c3ccccc3C)CC2c2ccccc2)c1 (stereo not drawn) yields TGI of > 100 µM

// recorded TGI for COc1cc(OC)c2c(O)c3c(cc2c1)CC(C)(C)CC3=O : > 100 µM

// batch mode: one TGI value per listed entry
1. N=c1nnc(=O)c2c(s1)-n1ncc(C(=O)O)c1NN2
2. O=C(CN1CCN(Cc2ccccc2)CC1)N1CCCn2c1nc1ccccc1c2=O
3. CCCCCCCCCCN(CCCCCCCCCC)CC(=O)c1ccc2cc(Br)c3ccccc3c2c1
4. CCNC(=O)C#CC(=O)NCC
5. C[C@]1(CO)[C@H]2CC[C@@]34C=C[C@@](CO)(CC[C@H]3[C@]2(C)CC[C@H]1O)C4
6. CC(=O)O[C@H]1CC[C@@]2(C)C(=CC[C@H]3[C@@H]4C/C(=C\c5cccc(OCCN6CCOCC6)c5)[C@H](OC(C)=O)[C@@]4(C)CC[C@@H]32)C1
7. NNc1cccc(/C=C/c2ccccc2)cc1=O
8. O=C(Nc1ccc(Cl)cc1)c1ccc(NC2=C(Cl)C(=O)N(Cc3ccccc3)C2=O)cc1

[A]
1. > 100 µM
2. > 100 µM
3. 3.66 µM
4. > 100 µM
5. > 100 µM
6. 14.2 µM
7. > 100 µM
8. 56.7 µM
